biological target: T1, human IL-21R expressed on cells (human, UniProt Q9HBE5 20-538); test: cell ELISA on transfected CHO cells, 13 nM IgG
T1 construct: Transfected BaF3, TF1 and CHO cells; also native on primary human B and CD4+ T cells; also called hIL-21R; human IL-21R-BaF3 cells
T1 sequence (Q9HBE5 20-538 limits assumed): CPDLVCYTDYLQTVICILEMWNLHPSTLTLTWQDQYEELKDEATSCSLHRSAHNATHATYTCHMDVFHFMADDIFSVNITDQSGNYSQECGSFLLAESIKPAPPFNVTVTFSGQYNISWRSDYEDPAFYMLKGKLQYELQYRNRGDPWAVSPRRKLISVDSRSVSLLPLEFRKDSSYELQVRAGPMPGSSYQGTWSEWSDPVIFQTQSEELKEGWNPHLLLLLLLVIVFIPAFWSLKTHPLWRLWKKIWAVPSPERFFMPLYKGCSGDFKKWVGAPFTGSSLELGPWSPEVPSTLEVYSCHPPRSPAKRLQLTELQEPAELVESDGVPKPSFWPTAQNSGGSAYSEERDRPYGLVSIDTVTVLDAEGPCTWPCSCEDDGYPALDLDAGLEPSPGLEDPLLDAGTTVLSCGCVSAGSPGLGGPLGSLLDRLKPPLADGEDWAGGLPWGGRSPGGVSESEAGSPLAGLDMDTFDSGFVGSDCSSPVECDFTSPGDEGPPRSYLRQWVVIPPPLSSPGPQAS
Overview of recorded A450 at 13 nM Ab in cell ELISA for various binders
Report the value in A450 with no unit label.

- AbI (antibody, human IgG1, V domains shown, Full-length human IgG1 / human lambda, transient, conditioned medium; Framework limits derived; also called VHP/VL24) VH: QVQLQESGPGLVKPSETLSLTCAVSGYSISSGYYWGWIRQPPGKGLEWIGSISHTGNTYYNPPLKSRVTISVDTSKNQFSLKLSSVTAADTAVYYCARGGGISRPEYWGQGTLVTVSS VL: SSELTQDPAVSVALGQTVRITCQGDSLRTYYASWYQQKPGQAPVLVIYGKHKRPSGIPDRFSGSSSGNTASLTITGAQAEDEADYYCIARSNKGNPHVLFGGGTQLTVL: 1.24

Input AbQ (antibody, human IgG1, V domains shown, Purified form: human IgG1 double-mutant (L234A, G237A); Framework limits derived; also called VH3/VL2; VH3DM/VL2) VH: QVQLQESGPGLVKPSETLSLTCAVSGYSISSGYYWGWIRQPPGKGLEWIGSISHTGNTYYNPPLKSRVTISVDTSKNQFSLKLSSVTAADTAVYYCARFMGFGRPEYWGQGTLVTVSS VL: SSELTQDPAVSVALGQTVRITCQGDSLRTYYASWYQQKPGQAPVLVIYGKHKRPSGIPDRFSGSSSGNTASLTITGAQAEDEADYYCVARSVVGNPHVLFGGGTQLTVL . Output A450 at 13 nM Ab in cell ELISA: 1.25

Input AbC (antibody, human IgG1, V domains shown, Full-length human IgG1 / human lambda, transient, conditioned medium; Framework limits derived; also called VHP/VL11) VH: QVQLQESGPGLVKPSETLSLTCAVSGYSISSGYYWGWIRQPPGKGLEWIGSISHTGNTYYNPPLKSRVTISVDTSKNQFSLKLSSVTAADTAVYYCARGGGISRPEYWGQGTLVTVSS VL: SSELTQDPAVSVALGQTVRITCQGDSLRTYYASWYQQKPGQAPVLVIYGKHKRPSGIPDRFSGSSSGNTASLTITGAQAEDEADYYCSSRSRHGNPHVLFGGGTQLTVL . Output A450 at 13 nM Ab in cell ELISA: 1.22
